Tested on: rat amylin (L-peptide) (Rattus norvegicus)
Sequence: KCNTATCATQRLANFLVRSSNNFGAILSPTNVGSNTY
Assay: cell_activity
Settings: L-RNA, L-dC at 41, 5'-40 kDa PEG; cAMP inhibition, MCF-7 cells; p375 prints human amylin for this value but p377 indicates rat amylin
pIC50: −log10 of the molar value.
property name: pIC50

[
  {
    "biopolymer sequence": "CCGUGCUGUCGGAGACUACUCGUCGAGUAGAAAUAGGUCCCCUCCCACGG [NOX-L41 (226-F2-001-D41-5'-40kDa-PEG)]",
    "assayed target": "rat amylin (L-peptide) (Rattus norvegicus)",
    "property name": "pIC50",
    "readout value": 6.55
  }
]
